Recorded values, source PubChem BioAssay (NCI).

- System: COLO 205 colon
- Test name: NCI-60 one-dose screen, 48 h (100 = growth as untreated, 0 = no growth, -100 = all killed)
- Measurement context: 10 µM unless noted
About 83,000 compounds went through this panel and 20% of them were active in at least one assay; those are over-represented in the sample as a whole.
Listed here are compounds together with their documented growth.

Compound: CN(C)CCCNC(=O)c1cc(NC(=O)c2cc(NC(=O)c3ccc(C#Cc4ccccc4)cc3)cn2C)cn1C
Unit: %
growth: -74.9
//
Compound: O=C(O)c1cccc(-c2ccc(/C=N/NC(=O)c3[nH]c4ccc(Br)cc4c3-c3ccccc3)o2)c1
Unit: %
growth: 114
//
Compound: C=C1CCC2C3(C)COC(c4ccc(F)cc4)OC3CCC2(C)C1C/C=C1/C(=O)OCC1O (centres undefined)
Unit: %
growth: -50.6
//
Compound: C=C1CC[C@@H]2[C@]3(C)COC(c4cn[nH]c4-c4ccccc4)O[C@@H]3CC[C@@]2(C)[C@@H]1C/C=C1/C(=O)OCC1O (some centres undefined)
Unit: %
growth: -10.8
